- System: ESKAPE pathogens
- assay-info: MIC micro broth dilution assay, statements and stacked scores over all ESKAPE pathogens
- Format: cell-based
- assay-conditions: dose 5 ug/ml; letters E,S,K,A,P,E = ESKAPE pathogens; — = none
experimental-readout: pathogens against which the compound showed activity at 5 ug/ml

compound	recorded-result
CCCCCCCN1C(=N)N(CCCC[C@H]2CNC(=N)N2CCc2cccc(C(F)(F)F)c2)C[C@@H]1CCCC [Compound 1]	ESKAPE
CCCCCCCN1C(=N)N(CCCC[C@H]2CNC(=N)N2CCCCC2CCCCC2)C[C@@H]1CCCC [Compound 10]	ESKAPE
CCCCC1CN(CCCCC2CNC(=N)N2CCC23CC4CC(CC(C4)C2)C3)C(=N)N1CCc1ccc(-c2ccccc2)cc1 (stereo not shown) [Compound 21]	ESKAPE
CCCC[C@H]1CN(CCCC[C@H]2CNC(=N)N2CCCCC2CCCCC2)C(=N)N1CCCCC1CCCCC1 [Compound 11]	ESAPE

query: Give the reported value of pathogens against which the compound showed activity at 5 ug/ml for this record: CCCCCCCN1C(=N)N(CCCC[C@H]2CNC(=N)N2CCc2cccc(C(F)(F)F)c2)C[C@@H]1CC1CCCCC1 [Compound 7]
result: ESKAPE

query: Give the reported value of pathogens against which the compound showed activity at 5 ug/ml for this record: N=C1NC[C@H](CCCCN2C[C@H](CC3CCCCC3)N(CCCCC3CCCCC3)C2=N)N1CCCCC1CCCCC1 [Compound 17]
result: ESKAPE

query: Give the reported value of pathogens against which the compound showed activity at 5 ug/ml for this record: CCCCCCCN1C(=N)N(CCCC[C@H]2CNC(=N)N2CCCCC2CCCCC2)C[C@H]1Cc1cccc2ccccc12 [Compound 13]
result: ESKAE

---

- Test system: Enterococcus faecium biofilm
- assay-info: Minimum biofilm eradication concentration (MBEC) assay
- Assay type: cell-based
- assay-conditions: 24 h biofilm, purified compound
experimental-readout: MBEC50 (µM)
Express your answer in µM, writing the number without its unit.

query: Give the reported value of MBEC50 for this record: CCCCCCCN1C(=N)N(CCCC[C@H]2CNC(=N)N2CCc2cccc(C(F)(F)F)c2)C[C@@H]1CCCC
result: 38.84

query: Give the reported value of MBEC50 for this record: CCCCCCCN1C(=N)N(CCCC[C@H]2CNC(=N)N2CCC23CC4CC(CC(C4)C2)C3)C[C@@H]1CCCC
result: 13.27

query: Give the reported value of MBEC50 for this record: CCCCCCCN1C(=N)N(CCCC[C@H]2CNC(=N)N2CCc2cccc(C(F)(F)F)c2)C[C@@H]1CC1CCCCC1
result: 26.30

query: Give the reported value of MBEC50 for this record: CCCC[C@H]1CN(CCCC[C@H]2CNC(=N)N2CCc2cccc(C(F)(F)F)c2)C(=N)N1CCCCC1CCCCC1
result: 29.20

---

- System: Enterobacter cloacae
- assay-info: MIC micro broth dilution assay
- Assay type: cell-based
- assay-conditions: panel of E. cloacae clinical isolates
experimental-readout: concentration inhibiting 90% of isolates (µM)
Express your answer in µM, writing the number without its unit.

query: Give the reported value of concentration inhibiting 90% of isolates for this record: CCCCCCCN1C(=N)N(CCCC[C@H]2CNC(=N)N2CCc2cccc(C(F)(F)F)c2)C[C@@H]1CC1CCCCC1
result: 2

query: Give the reported value of concentration inhibiting 90% of isolates for this record: CCCC[C@H]1CN(CCCC[C@H]2CNC(=N)N2CCc2cccc(C(F)(F)F)c2)C(=N)N1CCCCC1CCCCC1
result: 5

query: Give the reported value of concentration inhibiting 90% of isolates for this record: CCCCCCCN1C(=N)N(CCCC[C@H]2CNC(=N)N2CCC23CC4CC(CC(C4)C2)C3)C[C@@H]1CCCC
result: 5

query: Give the reported value of concentration inhibiting 90% of isolates for this record: CCCCCCCN1C(=N)N(CCCC[C@H]2CNC(=N)N2CCCCC2CCCCC2)C[C@@H]1CC1CCCCC1
result: 2

query: Give the reported value of concentration inhibiting 90% of isolates for this record: CCCCCCCN1C(=N)N(CCCC[C@H]2CNC(=N)N2CCc2cccc(C(F)(F)F)c2)C[C@@H]1CCCC
result: 10

---

- Tested on: Klebsiella pneumoniae
- assay-info: Minimal bactericidal concentration (MBC) assay
- Assay type: cell-based
- assay-conditions: Klebsiella pneumoniae, purified compound; read-out: MBC90
Can you tell me MBC for the items I'm about to list?
Express your answer in µM, writing the number without its unit.

query: Give the reported value of MBC for this record: CCCC[C@H]1CN(CCCC[C@H]2CNC(=N)N2CCc2cccc(C(F)(F)F)c2)C(=N)N1CCCCC1CCCCC1 [Compound 2]
result: 3.98

query: Give the reported value of MBC for this record: CCCCCCCN1C(=N)N(CCCC[C@H]2CNC(=N)N2CCCCC2CCCCC2)C[C@@H]1CC1CCCCC1 [Compound 16]
result: 4.45

query: Give the reported value of MBC for this record: CCCCCCCN1C(=N)N(CCCC[C@H]2CNC(=N)N2CCc2cccc(C(F)(F)F)c2)C[C@@H]1CCCC [Compound 1]
result: 2.36

---

- System: Enterobacter cloacae
- assay-info: MIC micro broth dilution assay
- Type: cell-based
- assay-conditions: Enterobacter cloacae, E. cloacae isolate 1447
experimental-readout: MIC
Note to self: number, then unit, no commentary.

query: Give the reported value of MIC for this record: CCCCCCCN1C(=N)N(CCCC[C@H]2CNC(=N)N2CCc2cccc(C(F)(F)F)c2)C[C@@H]1CC1CCCCC1
result: 2 µM

query: Give the reported value of MIC for this record: CCCCCCCN1C(=N)N(CCCC[C@H]2CNC(=N)N2CCc2cccc(C(F)(F)F)c2)C[C@@H]1CCCC
result: 5 µM

query: Give the reported value of MIC for this record: CCCC[C@H]1CN(CCCC[C@H]2CNC(=N)N2CCc2cccc(C(F)(F)F)c2)C(=N)N1CCCCC1CCCCC1
result: 3 µM

query: Give the reported value of MIC for this record: CCCCCCCN1C(=N)N(CCCC[C@H]2CNC(=N)N2CCCCC2CCCCC2)C[C@@H]1CC1CCCCC1
result: 2 µM

---

- System: Klebsiella pneumoniae biofilm
- assay-info: Minimum biofilm eradication concentration (MBEC) assay
- Assay type: cell-based
- assay-conditions: 24 h biofilm, purified compound
Can you tell me MBEC50 for the items I'm about to list?
Express your answer in µM, writing the number without its unit.

query: Give the reported value of MBEC50 for this record: CCCC[C@H]1CN(CCCC[C@H]2CNC(=N)N2CCc2cccc(C(F)(F)F)c2)C(=N)N1CCCCC1CCCCC1
result: 4.65

query: Give the reported value of MBEC50 for this record: CCCCCCCN1C(=N)N(CCCC[C@H]2CNC(=N)N2CCc2cccc(C(F)(F)F)c2)C[C@@H]1CC1CCCCC1
result: 4.81

query: Give the reported value of MBEC50 for this record: CCCCCCCN1C(=N)N(CCCC[C@H]2CNC(=N)N2CCCCC2CCCCC2)C[C@@H]1CC1CCCCC1
result: 6.28

query: Give the reported value of MBEC50 for this record: CCCCCCCN1C(=N)N(CCCC[C@H]2CNC(=N)N2CCc2cccc(C(F)(F)F)c2)C[C@@H]1CCCC
result: 6.97

---

- Test system: Acinetobacter baumannii
- assay-info: MIC micro broth dilution assay
- Assay type: cell-based
- Design: key: stacked score = 100/MIC
- assay-conditions: A. baumannii
Can you tell me stacked score activity, 100/MIC, A for the items I'm about to list?

query: Give the reported value of stacked score activity, 100/MIC, A for this record: CCCCCCCN1C(=N)N(CCCC[C@H]2CNC(=N)N2CCCCC2CCCCC2)C[C@H]1Cc1cccc2ccccc12 [Compound 13]
result: 20

query: Give the reported value of stacked score activity, 100/MIC, A for this record: N=C1NC[C@H](CCCCN2C[C@H](CC3CCCCC3)N(CCc3ccc(-c4ccccc4)cc3)C2=N)N1CCc1cccc(C(F)(F)F)c1 [Compound 9]
result: 20

query: Give the reported value of stacked score activity, 100/MIC, A for this record: CCCCCCCN1C(=N)N(CCCC[C@H]2CNC(=N)N2CCC23CC4CC(CC(C4)C2)C3)C[C@@H]1CCCC [Compound 19]
result: 25

query: Give the reported value of stacked score activity, 100/MIC, A for this record: CCC[C@@H]1CN(CCCC[C@H]2CNC(=N)N2CC2CCC(C)CC2)C(=N)N1CCc1cccc(C)c1 (some centres unmarked) [Compound 53]
result: 0

query: Give the reported value of stacked score activity, 100/MIC, A for this record: N=C1NC[C@H](CCCCN2C[C@@H](Cc3cccc4ccccc34)N(CCc3ccc(-c4ccccc4)cc3)C2=N)N1CCCCC1CCCCC1 [Compound 15]
result: 4

query: Give the reported value of stacked score activity, 100/MIC, A for this record: Cc1cccc(CCN2CCN(CCCC[C@H]3CNC(=N)N3CC3CCCCC3)C2=N)c1 [Compound 38]
result: 0

query: Give the reported value of stacked score activity, 100/MIC, A for this record: CCC(C)CN1CCN(CCCC[C@H]2CNC(=N)N2CC2CCCCC2)C1=N (some centres unmarked) [Compound 39]
result: 0

query: Give the reported value of stacked score activity, 100/MIC, A for this record: CCCC[C@H]1CN(CCCC[C@H]2CNC(=N)N2CCCCC2CCCCC2)C(=N)N1CCCCC1CCCCC1 [Compound 11]
result: 25
